CONDITION_CONTEXT: 318.3 K; Liquid; Gas Saturation Method
VALUE_TYPE: vapor or sublimation pressure (kPa)

Record excerpt, results attached:
COMPOUND: CCOC(=O)C(=O)OCC [diethyl ethanedioate]
VALUE_TYPE: vapor or sublimation pressure
UNIT_INFO: kPa
ENDPOINT_VALUE: 0.2434

COMPOUND: CCCCOC(=O)CCC(=O)OCCCC [butanedioic acid, dibutyl ester]
VALUE_TYPE: vapor or sublimation pressure
UNIT_INFO: kPa
ENDPOINT_VALUE: 0.00205

P. CCCCOC(=O)CCCC(=O)OCCCC [dibutyl pentanedioate]
Q. CCCCOC(=O)CC(=O)OCCCC [dibutyl 1,3-propanedioate]
Q: Response body: label of entry with the larger vapor or sublimation pressure; valid values P , Q . Answer by quoting the chosen item's label.
Ans: Q

---

CONDITION_CONTEXT: 318.2 K; Liquid; Gas Saturation Method
VALUE_TYPE: vapor or sublimation pressure (kPa)

COMPOUND: CCOC(=O)CCCC(=O)OCC [diethyl glutarate]
UNIT_INFO: kPa
vapor or sublimation pressure: 0.0185

P. CCOC(=O)CCCCC(=O)OCC [diethyl hexanedioate]
Q. CCCCOC(=O)CCCCC(=O)OCCCC [dibutyl hexanedioate]
Q: Response body: label of entry with the larger vapor or sublimation pressure; valid values P , Q . Answer by quoting the chosen item's label.
Ans: P
(P: 0.00793 kPa, Q: 0.0003 kPa)

---

CONDITION_CONTEXT: 323.5 K; Liquid; Gas Saturation Method
VALUE_TYPE: vapor or sublimation pressure (kPa)

MOLECULE: CCOC(=O)CCC(=O)OCC [diethyl butanedioate]
UNIT_INFO: kPa
ENDPOINT_VALUE: 0.0777

MOLECULE: CCCOC(=O)CCCC(=O)OCCC
UNIT_INFO: kPa
ENDPOINT_VALUE: 0.00637

P. CCCOC(=O)CCC(=O)OCCC
Q. CCCOC(=O)CCCCC(=O)OCCC [dipropyl hexanedioate]
Q: Response body: label of entry with the larger vapor or sublimation pressure; valid values P , Q . Answer by quoting the chosen item's label.
Ans: P
(P: 0.0163 kPa, Q: 0.0026 kPa)

---

CONDITION_CONTEXT: 338.2 K; Liquid; Gas Saturation Method
VALUE_TYPE: vapor or sublimation pressure (kPa)

COMPOUND: CCCCOC(=O)CCC(=O)OCCCC [butanedioic acid, dibutyl ester]
UNIT_INFO: kPa
ENDPOINT_VALUE: 0.011

P. CCOC(=O)CCCCC(=O)OCC [diethyl hexanedioate]
Q. CCOC(=O)CCCC(=O)OCC [diethyl glutarate]
R. CCCCOC(=O)CC(=O)OCCCC [dibutyl 1,3-propanedioate]
Q: Order by vapor or sublimation pressure, ascending. The reply should contain the labels ordered as requested.
Ans: R, P, Q
(R: 0.0267 kPa, P: 0.039 kPa, Q: 0.0874 kPa)

---

CONDITION_CONTEXT: 328.5 K; Liquid; Gas Saturation Method
Structures can show the parent of a compound that is named as a salt.
VALUE_TYPE: vapor or sublimation pressure (kPa)

COMPOUND: CCOC(=O)CCC(=O)OCC [diethyl butanedioate]
UNIT_INFO: kPa
ENDPOINT_VALUE: 0.1125

I. CCCOC(=O)CCCC(=O)OCCC [pentanedioic acid, dipropyl ester]
II. CCCOC(=O)CC(=O)OCCC [dipropyl 1,3-propanedioate]
III. CCCCOC(=O)C(=O)OCCCC [di-n-butyl oxalate]
Q: # desc sort on vapor or sublimation pressure across 3 compounds The reply should contain the labels ordered as requested.
Ans: II, III, I
